These measurements were taken from PubChem BioAssay AID1986.

test: inhibitors of HIV fusion peptide binding, primary screen, biochemical, uHTS, fluorescence dequenching (AID 1986); details: cell-free peptide binding, 30 min, at 20 µM
Among all 290,000 compounds or so, about 890 (0.31%) were called active. No stated cut-off is given here; in the data, active means inhibition mostly above about 52% (no sharp cut-off); inactive means mostly below about 76%. The list comes from a sample in which actives are over-represented; it also holds close analogues and randomly drawn compounds.
Log the outcome using a class from T = active, F = inactive

{"compound": "COc1ccc(CN2C(=O)NC(=O)/C(=C\\c3ccco3)C2=O)cc1", "label_value": "T"}
{"compound": "CN1/C(=C\\C=C\\C2=[N+](C)c3ccc4ccccc4c3C2(C)C)C(C)(C)c2ccccc21", "label_value": "T"}

## Input Check the results log: what was the call for C[C@]12CCC3C(CCC4=C/C(=N/OCC(=O)NC(CCC(=O)O)C(=O)O)CC[C@@]43C)C1CCC2O (stereo partly specified) ?
## Output F

## Input Would you mind doing COc1ccc(CN2C(=O)NC(=O)/C(=C/c3ccoc3)C2=O)cc1 as well?
## Output F

## Input Now consider CCOc1ccc(N2C(=O)/C(=C\c3cccs3)C(=O)NC2=S)cc1 .
## Output T

## Input Thanks! And FC(F)(F)c1ccccc1NC1=NCCCS1 ?
## Output F

## Input Proceed to O=C1NC(=O)N(Cc2ccco2)C(=O)/C1=C/C=C/c1ccco1
## Output T

## Input Next entry: O=C1NC(=O)N(Cc2ccccc2)C(=O)/C1=C\c1ccco1
## Output F

## Input Also, CCn1nc(-c2cccs2)nc2c(=O)n(C)c(=O)nc1-2 please.
## Output F

## Input What do you have for O=C1NC(=O)N(Cc2ccccc2)C(=O)/C1=C/C=C/c1ccco1 ?
## Output F

## Input Subsequent entry: O=C1NC(=O)N(Cc2ccccc2)C(=O)/C1=C\C=C\c1ccco1
## Output F
